ASSAY_TEXT: Compound was evaluated for the ability to inhibit penicillopepsin.

| MOLECULE | MODIFIER | Ki, nM |
| --- | --- | --- |
| CC(C)CC(=O)N[C@H](C(=O)N[C@H](C(=O)N[C@@H](CC(C)C)[C@@H](O)CC(=O)N[C@@H](C)C(=O)N[C@@H](CC(C)C)[C@@H](O)CC(=O)O)C(C)C)C(C)C [PEPSTATIN] | = | 0.15 |
| CC(C)CCC(=O)NC(=O)[C@@H](C)NC(=O)CC(O)[C@H](CC(C)C)NC(=O)[C@@H](NC(=O)CC(C)C)C(C)C (stereo not given in full) | = | 7600 |
| CC(C)CCC(=O)NC(=O)[C@H](C)NC(=O)CC(=O)[C@H](CC(C)C)NC(=O)[C@@H](NC(=O)[C@@H](NC(=O)CC(C)C)C(C)C)C(C)C | = | 85 |
| CC(C)CCC(=O)NC(=O)[C@H](C)NC(=O)CC(O)[C@@H](CC(C)C)N(C)C(=O)[C@H](NC(=O)[C@@H](NC(=O)CC(C)C)C(C)C)C(C)C (stereo in doubt; 13a(3s)) | > | 5000 |
| CCOC(=O)CC(O)[C@H](CC(C)C)NC(=O)[C@@H](NC(=O)[C@@H](NC(=O)CC(C)C)C(C)C)C(C)C (stereo not given in full) | = | 47 |

====

# Ki measurements, system: Pepsin A (Sus scrofa, UniProt P00791)
# Sequence (P00791 whole entry): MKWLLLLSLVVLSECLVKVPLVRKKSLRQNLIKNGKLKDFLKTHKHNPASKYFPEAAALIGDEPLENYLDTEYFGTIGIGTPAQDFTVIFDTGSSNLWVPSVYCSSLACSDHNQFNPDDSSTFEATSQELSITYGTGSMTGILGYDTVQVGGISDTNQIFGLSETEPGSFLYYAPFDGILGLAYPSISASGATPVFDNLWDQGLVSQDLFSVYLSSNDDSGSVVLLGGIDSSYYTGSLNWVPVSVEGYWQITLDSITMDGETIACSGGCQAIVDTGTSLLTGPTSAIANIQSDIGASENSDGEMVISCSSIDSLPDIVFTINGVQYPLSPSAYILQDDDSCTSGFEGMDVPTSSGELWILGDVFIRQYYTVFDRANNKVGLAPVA

| MOLECULE | Ki, nM |
| --- | --- |
| CCOC(=O)CC(O)[C@H](CC(C)C)NC(=O)[C@@H](NC(=O)[C@@H](NC(=O)CC(C)C)C(C)C)C(C)C (stereo partly drawn) | 10 |
| CC(C)CCC(=O)NC(=O)[C@H](C)NC(=O)CC(O)[C@@H](Cc1ccccc1)NC(=O)[C@H](NC(=O)CC(C)C)C(C)C (stereo partly drawn) | 0.9 |
| CC(C)CCC(=O)NC(=O)[C@H](C)NC(=O)CC(O)[C@@H](CC(C)C)N(C)C(=O)[C@H](NC(=O)[C@@H](NC(=O)CC(C)C)C(C)C)C(C)C (stereo in doubt; 13a(3s)) | 1200 |
| CC(C)CNC(=O)[C@@H](C)NC(=O)[C@@H](C)CC(=O)[C@H](CC(C)C)NC(=O)[C@@H](NC(=O)CC(C)C)C(C)C | 110 |
| CC(C)CNC(=O)[C@H](C)NC(=O)[C@@H](C)CC(O)[C@@H](CC(C)C)NC(=O)[C@H](NC(=O)CC(C)C)C(C)C (stereo in doubt; 16b(4R)) | 700 |
| CC(C)CCC(=O)NC(=O)C(C)NC(=O)CC(O)[C@H](CC(C)C)NC(=O)[C@@H](NC(=O)[C@@H](NC(=O)CC(C)C)C(C)C)C(C)C (stereo partly drawn) | 2000 |
| CC(C)CCC(=O)NC(=O)CNC(=O)CC(O)[C@@H](CC(C)C)NC(=O)[C@H](NC(=O)CC(C)C)C(C)C (stereo partly drawn) | 56 |
| CC(C)CNC(=O)[C@H](C)NC(=O)[C@@H](C)CC(O)[C@@H](CC(C)C)NC(=O)[C@H](NC(=O)CC(C)C)C(C)C (stereo in doubt; 16a(4S)) | 3 |
